- tested.system: T1, HA-GCN4 hAPRIL (amino acid residues 105-250) (human, UniProt O75888 105-250)
- T1 construct: Bought (R&D Systems); also called HA-tagged GCN4 human APRIL; HA-GCN4-huAPRIL; not shown: N-terminal HA tag; GCN4 isoleucine zipper oligomerization domain
- T1 sequence: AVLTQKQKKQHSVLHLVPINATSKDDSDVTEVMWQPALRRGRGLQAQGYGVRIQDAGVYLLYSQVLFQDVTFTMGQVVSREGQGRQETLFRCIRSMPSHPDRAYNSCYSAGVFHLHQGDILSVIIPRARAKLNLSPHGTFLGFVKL
- measurement.notes: blocking ELISA; blocked: human APRIL binding to TACI-Fc
experimental.readout: Relative Activity (normalised to 2419)
Give the figure by itself; no unit, no explanation.

Prompt: Output Relative Activity (normalised to 2419) of monoclonal antibody 2419-0205 (antibody, IgG2, V domains shown) VH: QVQLVQSGAEVKKPGSSVKVSCKASGYTFTDYTIHWVRQAPGQGLEWMGWIYPLRGSINYAQKFQGRVTITADKSTSTAYMELSSLRSEDTAVYFCARHGAYYSNAFDYWGQGTLVTVSS VL: EIVMTQSPATLSVSPGERATLSCRASESVDNDGIRFLHWYQQKPGQAPRLLIYRASNRETGIPARFSGSGSGTEFTLTISSLQSEDFAVYYCQQSNKDPYTFGGGTKVEIK
Response: 1.12

Prompt: Output Relative Activity (normalised to 2419) of 2419-1310 (antibody, V domains shown) VH: QVQLVQSGAEVKKPGASVKVSCKASGYTFTDYTIHWVRQATGQGLEWMGWIYPLRGSINYAQKFQGRVTMTANKSISTVYMELSSLRSEDTAVYFCARHGAYYSNAFDYWGQGTLVTVSS VL: DIVMTQSPDSLAVSLGERATINCKSSQSVDNDGIRFLHWYQQKPGQPPKLLIYRASTRESGVPDRFSGSGSGTDFTLTISSLQAEDVAVYYCQQSNKDPYTFGGGTKVEIK
Response: 1.09

Prompt: Output Relative Activity (normalised to 2419) of 2419-0806 (antibody, V domains shown) VH: EVQLVQSGAEVKKPGESLKISCKASGYTFTDYTIHWVRQMPGKGLEWMGWIYPLRGSINYSPSFQGQVTISADKSISTVYLQWSSLKASDTAMYFCARHGAYYSNAFDYWGQGTLVTVSS VL: EIVMTQSPATLSVSPGERATLSCRASESVDNDGIRFLHWYQQKPGQAPRLLIYRASTRATGIPARFSGSGSRTEFTLTISSLQSEDFAVYYCQQSNKDPYTFGGGTKVEIK
Response: 1.17
